# System tested: Heat shock protein HSP 90-beta (Homo sapiens)
# Assay: Displacement of [3H]17AAG from human recombinant Hsp90 after 30 mins by beta scintillation counting
Reported IC50 values for the following compounds.
Measurement type: IC50 (nM)

Smi	System tested	Value observed
COc1ccc(CN(C)C(=O)c2cc3c(Cc4cccc(Cl)c4)n[nH]c3cc2O)cc1	Heat shock protein HSP 90-beta (Homo sapiens)	800
Cc1cccc(CN(C)C(=O)c2cc3c(Cc4ccccc4)n[nH]c3cc2O)c1	Heat shock protein HSP 90-beta (Homo sapiens)	3600
CN(Cc1ccc(CNS(C)(=O)=O)cc1)C(=O)c1cc2c(Cc3cccc(Cl)c3)n[nH]c2cc1O	Heat shock protein HSP 90-beta (Homo sapiens)	60
Cc1cccc(Cc2n[nH]c3cc(O)c(C(=O)N(C)Cc4ccc(Cl)c(F)c4)cc23)c1	Heat shock protein HSP 90-beta (Homo sapiens)	170
COc1cccc(CN(C)C(=O)c2cc3c(Cc4ccccc4)n[nH]c3cc2O)c1OC	Heat shock protein HSP 90-beta (Homo sapiens)	470

----------
# System tested: Heat shock protein HSP 90-beta (Homo sapiens, UniProt P08238)
# Sequence (P08238 whole entry): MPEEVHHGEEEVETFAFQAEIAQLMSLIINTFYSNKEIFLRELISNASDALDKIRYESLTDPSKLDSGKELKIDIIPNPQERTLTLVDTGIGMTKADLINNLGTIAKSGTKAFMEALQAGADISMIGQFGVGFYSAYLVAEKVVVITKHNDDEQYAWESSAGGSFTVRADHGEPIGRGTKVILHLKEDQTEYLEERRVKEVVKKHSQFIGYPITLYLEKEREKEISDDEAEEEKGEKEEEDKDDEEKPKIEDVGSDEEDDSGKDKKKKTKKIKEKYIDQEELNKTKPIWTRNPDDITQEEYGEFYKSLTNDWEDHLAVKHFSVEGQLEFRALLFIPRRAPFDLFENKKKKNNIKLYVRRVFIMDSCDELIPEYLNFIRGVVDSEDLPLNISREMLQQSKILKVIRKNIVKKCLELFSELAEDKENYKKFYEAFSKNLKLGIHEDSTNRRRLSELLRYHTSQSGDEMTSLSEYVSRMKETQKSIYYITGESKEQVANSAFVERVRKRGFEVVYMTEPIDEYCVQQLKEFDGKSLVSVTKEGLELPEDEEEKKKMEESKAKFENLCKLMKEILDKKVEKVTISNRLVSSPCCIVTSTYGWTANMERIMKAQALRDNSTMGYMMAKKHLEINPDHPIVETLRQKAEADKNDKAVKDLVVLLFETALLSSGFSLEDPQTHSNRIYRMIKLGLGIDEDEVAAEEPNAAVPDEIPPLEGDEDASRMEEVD
# Assay: Displacement of [3H]17AAG from human recombinant Hsp90 after 30 mins by beta scintillation counting

Smi	IC50 / µM
CCCCN(C)C(=O)c1cc2c(Cc3ccccc3)n[nH]c2cc1O	1.8
CN(Cc1ccccc1Cl)C(=O)c1cc2c(Cc3ccccc3)n[nH]c2cc1O	1.1
Cc1cccc(Cc2n[nH]c3cc(O)c(C(=O)N(C)Cc4ccc(F)c(F)c4)cc23)c1	0.5
Oc1ccc2c(C3CCCC3)n[nH]c2c1	87
CN(Cc1cccc(C(F)(F)F)c1)C(=O)c1cc2c(Cc3ccccc3)n[nH]c2cc1O	3.4
CN(Cc1ccc(Br)cc1)C(=O)c1cc2c(Cc3ccccc3)n[nH]c2cc1O	1.1
CCN(Cc1ccccc1)C(=O)c1cc2c(Cc3cccc(C)c3)n[nH]c2cc1O	3
CN(Cc1ccccc1)C(=O)c1cc2c(Cc3ccc(Cl)cc3)n[nH]c2cc1O	5.7
COc1cc(CN(C)C(=O)c2cc3c(Cc4cccc(C)c4)n[nH]c3cc2O)ccc1Cl	0.68
Cc1ccccc1CN(C)C(=O)c1cc2c(Cc3ccccc3)n[nH]c2cc1O	0.74

----------
# System tested: Heat shock protein HSP 90-beta (Homo sapiens, UniProt P08238)
# Assay: Displacement of [3H]17AAG from human recombinant Hsp90 after 30 mins by beta scintillation counting
pIC50: −log10 of the molar value.
Rule: t for pIC50 not less than 6, f for anything less.

Smi	Class assignment
CCc1ccc(Cc2n[nH]c3cc(O)c(C(=O)N(C)Cc4ccccc4)cc23)cc1	f
CCc1ccc(CN(C)C(=O)c2cc3c(Cc4ccccc4)n[nH]c3cc2O)cc1	t
COc1cc(CN(C)C(=O)c2cc3c(Cc4ccccc4)n[nH]c3cc2O)ccc1Cl	f

----------
# System tested: Heat shock protein HSP 90-beta (Homo sapiens, UniProt P08238)
# Assay: Displacement of [3H]17AAG from human recombinant Hsp90 after 30 mins by beta scintillation counting
Lab note: anything with IC50 below 500 nM is marked Yes; values at 500 nM or higher are marked No.

Smi	System tested	Class assignment
Nc1nc(Cl)cc(Cc2ccc(Cl)cc2)n1	Heat shock protein HSP 90-beta (Homo sapiens, UniProt P08238)	No
Cc1cccc(Cc2n[nH]c3cc(O)c(C(=O)N(C)Cc4ccc(CNS(C)(=O)=O)cc4)cc23)c1	Heat shock protein HSP 90-beta (Homo sapiens, UniProt P08238)	Yes
COc1ccc(CN(C)C(=O)c2cc3c(Cc4cccc(C)c4)n[nH]c3cc2O)cc1	Heat shock protein HSP 90-beta (Homo sapiens, UniProt P08238)	Yes
CN(Cc1ccccc1)C(=O)c1cc2c(CCc3ccccc3)n[nH]c2cc1O	Heat shock protein HSP 90-beta (Homo sapiens, UniProt P08238)	Yes
COc1ccccc1CN(C)C(=O)c1cc2c(Cc3ccccc3)n[nH]c2cc1O	Heat shock protein HSP 90-beta (Homo sapiens, UniProt P08238)	No

----------
# System tested: Heat shock protein HSP 90-beta (Homo sapiens)
# Assay: Displacement of [3H]17AAG from human recombinant Hsp90 after 30 mins by beta scintillation counting
pIC50: −log10 of the molar value.
Measurement type: pIC50

Smi	Relation qualifier	Value observed
CN(Cc1ccccc1)C(=O)c1cc2c(Cc3cccc(F)c3)n[nH]c2cc1O	=	5.89
Cc1ccc(CN(C)C(=O)c2cc3c(Cc4ccccc4)n[nH]c3cc2O)cc1	=	6.20
Cc1cccc(Cc2n[nH]c3cc(O)c(C(=O)N(C)Cc4ccccc4Br)cc23)c1	=	6.11
Cc1cccc(Cc2n[nH]c3cc(O)c(C(=O)N(C)Cc4cccc(F)c4)cc23)c1	=	6.43
COc1cc2[nH]nc(Cc3cccc(C)c3)c2cc1C(=O)N(C)Cc1ccccc1	<	4.70
CN(Cc1ccc(F)cc1)C(=O)c1cc2c(Cc3ccccc3)n[nH]c2cc1O	=	5.96
CN(Cc1ccccc1Br)C(=O)c1cc2c(Cc3ccccc3)n[nH]c2cc1O	=	6.21
COc1cccc(CN(C)C(=O)c2cc3c(Cc4ccccc4)n[nH]c3cc2O)c1	=	6.01
Cc1cccc(Cc2n[nH]c3cc(O)c(C(=O)N(C)Cc4cccc(NS(C)(=O)=O)c4)cc23)c1	=	6.70
Cc1cccc(Cc2n[nH]c3cc(O)c(C(=O)N(C)Cc4ccc(NS(C)(=O)=O)cc4)cc23)c1	=	6.46
CN(Cc1ccccc1)C(=O)c1cc2c(Cc3cccc(Cl)c3)n[nH]c2cc1O	=	6.40
CCCN(C)C(=O)c1cc2c(Cc3ccccc3)n[nH]c2cc1O	=	5.72
CN(Cc1ccccc1)C(=O)c1cc2c(Cc3ccccc3Cl)n[nH]c2cc1O	=	5.59
COc1ccc(CN(C)C(=O)c2cc3c(Cc4cccc(C)c4)n[nH]c3cc2O)cc1OC	=	6.24
CN(Cc1cccc(Br)c1)C(=O)c1cc2c(Cc3ccccc3)n[nH]c2cc1O	=	5.89
Cc1cccc(Cc2n[nH]c3cc(O)c(C(=O)NCc4ccccc4)cc23)c1	=	5.82
COc1ccc(CN(C)C(=O)c2cc3c(Cc4cccc(Cl)c4)n[nH]c3cc2O)cc1OC	=	6.14
CCc1cccc(Cc2n[nH]c3cc(O)c(C(=O)N(C)Cc4ccccc4)cc23)c1	=	5.89
CN(Cc1cccc(NS(C)(=O)=O)c1)C(=O)c1cc2c(Cc3cccc(Cl)c3)n[nH]c2cc1O	=	6.39
COc1cccc(Cc2n[nH]c3cc(O)c(C(=O)N(C)Cc4ccccc4)cc23)c1	=	5.85

----------
Reported IC50 values for the following molecules.
# System: PC-3
# Assay: Antiproliferative activity against human PC3 cells after 72 hrs by alamar blue assay
# Type: functional, cell-based
# Recorded conditions: PC-3, 72 h

Smi	U	Relation qualifier	IC50
Cc1cccc(Cc2n[nH]c3cc(O)c(C(=O)N(C)Cc4ccc(CNS(C)(=O)=O)cc4)cc23)c1	µM	>	10
CN(Cc1ccc(CNS(C)(=O)=O)cc1)C(=O)c1cc2c(Cc3cccc(Cl)c3)n[nH]c2cc1O	µM	=	4.3

----------
# System tested: Heat shock protein HSP 90-beta (Homo sapiens, UniProt P08238)
# Assay: Inhibition of Hsp90 in human A2780 cells assessed as Hsp70 upregulation after 24 hrs by immunostaining method
# Format: cell-based
Reported IC50 values for the following compounds.
Measurement type: IC50 (nM)

Smi	Value observed
Cc1cccc(Cc2n[nH]c3cc(O)c(C(=O)N(C)Cc4ccc(CNS(C)(=O)=O)cc4)cc23)c1	1100
CN(Cc1ccc(CNS(C)(=O)=O)cc1)C(=O)c1cc2c(Cc3cccc(Cl)c3)n[nH]c2cc1O	1000

----------
# System tested: Heat shock protein HSP 90-beta (Homo sapiens, UniProt P08238)
# Assay: Displacement of [3H]17AAG from human recombinant Hsp90 after 30 mins by beta scintillation counting
pIC50: −log10 of the molar value.
Rule: y for pIC50 not less than 6, n for anything less.

Smi	Class assignment
CN(Cc1ccc(Cl)cc1)C(=O)c1cc2c(Cc3ccccc3)n[nH]c2cc1O	y
NC(=O)c1cc2c(Cc3ccccc3)n[nH]c2cc1O	n
CN(Cc1cccc(F)c1)C(=O)c1cc2c(Cc3ccccc3)n[nH]c2cc1O	y
Cc1ccccc1Cc1n[nH]c2cc(O)c(C(=O)N(C)Cc3ccccc3)cc12	n
Cc1cccc(Cc2n[nH]c3cc(O)c(C(=O)N(C)Cc4ccc(F)cc4)cc23)c1	y
CN(Cc1ccccc1Br)C(=O)c1cc2c(Cc3cccc(Cl)c3)n[nH]c2cc1O	y

----------
# System tested: Heat shock protein HSP 90-beta (Homo sapiens, UniProt P08238)
# Assay: Displacement of [3H]17AAG from human recombinant Hsp90 after 30 mins by beta scintillation counting

Smi	IC50 [nM]
CN(C(=O)c1cc2c(Cc3ccccc3)n[nH]c2cc1O)c1ccco1	610
COCCN(C)C(=O)c1cc2c(Cc3ccccc3)n[nH]c2cc1O	4000
CN(Cc1cccc(Cl)c1)C(=O)c1cc2c(Cc3ccccc3)n[nH]c2cc1O	1500
CN(Cc1ccc(F)cc1)C(=O)c1cc2c(Cc3cccc(Cl)c3)n[nH]c2cc1O	800
CN(Cc1ccccc1F)C(=O)c1cc2c(Cc3ccccc3)n[nH]c2cc1O	900
